- tested_on: UniProtKB O14744
- protocol_notes: Inhibition of PRMT5 (unknown origin) assessed as inhibition of symmetric dimethylation of arginine incubated for 3 days by fluorescence based cellular target engagement assay
parameter_measured: EC50 (nM)

Examples from the recorded data:
Notebook: Nc1nc2cc(C[C@@H]3CC[C@@]4(O)[C@@H]3O[C@@H](n3ccc5c(N)ncnc53)[C@@H]4O)cc(F)c2cc1F , EC50 read as 1.7

Notebook: Nc1nc2cc(C[C@@H]3CC[C@@]4(O)[C@@H]3O[C@@H](n3cc(F)c5c(N)ncnc53)[C@@H]4O)ccc2cc1F , EC50 read as 4.6

[1] CNc1ncnc2c1ccn2[C@@H]1O[C@@H]2[C@@H](Oc3ccc4cc(Br)c(N)nc4c3)CC[C@]2(O)[C@H]1O
[2] Cc1ncnc2c1ccn2[C@@H]1O[C@@H]2[C@H](Cc3ccc4cc(F)c(N)nc4c3)CC[C@]2(O)[C@H]1O
[3] Nc1nc2cc(C[C@@H]3CC[C@@]4(O)[C@@H]3O[C@@H](n3ccc5c(N)ncnc53)[C@@H]4O)ccc2cc1Br
[4] Nc1nc2cc(C[C@@H]3CC[C@@]4(O)[C@@H]3C[C@@H](n3cc(F)c5c(N)ncnc53)[C@@H]4O)cc(F)c2cc1F
**Q:** Ascending by EC50, please. Reply format: the labels, ordered as requested.
**A:** 4, 3, 1, 2
(4: 0.84 nM, 3: 1.3 nM, 1: 5.3 nM, 2: 14 nM)

###

The entries below are paired with their reported EC50.
- System: Z-138
- protocol_notes: Antiproliferative activity against human Z138 cells incubated for 10 days by cell titer-glo assay
- Type: functional, cell-based
- measurement_setup: Z-138, 240 h
Write down the numeric answer in nM and omit the unit.

Notebook: Nc1nc2cc(C[C@@H]3CC[C@@]4(O)[C@@H]3C[C@@H](n3ccc5c(N)ncnc53)[C@@H]4O)ccc2cc1Br , EC50 read as 6.9

Attention now turns to another entry.
Notebook: Nc1nc2cc(C[C@@H]3CC[C@@]4(O)[C@@H]3O[C@@H](n3ccc5c(N)ncnc53)[C@@H]4O)ccc2cc1Cl , EC50 read as 3.2

###

- tested_on: UniProt O14744
- protocol_notes: Inhibition of PRMT5 (unknown origin) assessed as inhibition of symmetric dimethylation of arginine incubated for 3 days by fluorescence based cellular target engagement assay
parameter_measured: EC50 (nM)

Examples from the recorded data:
Notebook: Cc1ncnc2c1ccn2[C@@H]1O[C@@H]2[C@@H](Cc3ccc4cc(Cl)c(N)nc4c3)CC[C@]2(O)[C@H]1O , EC50 read as 21

Notebook: Nc1nc2cc(C[C@@H]3CC[C@@]4(O)[C@@H]3O[C@@H](n3ccc5c(N)ncnc53)[C@@H]4O)c(F)cc2cc1F , EC50 read as 2.8

Notebook: Nc1nc2cc(C[C@@H]3CC[C@@]4(O)[C@@H]3O[C@@H](n3ccc5c(N)ncnc53)[C@@H]4O)ccc2cc1F , EC50 read as 2.3

Notebook: Nc1nc2cc(O[C@H]3CC[C@@]4(O)[C@@H]3O[C@@H](n3ccc5c(N)ncnc53)[C@@H]4O)ccc2cc1Br , EC50 read as 1.2

Notebook: Cc1cc2ccc(C[C@@H]3CC[C@@]4(O)[C@@H]3O[C@@H](n3ccc5c(N)ncnc53)[C@@H]4O)cc2nc1N , EC50 read as 3.2

Notebook: Cc1ncnc2c1ccn2[C@@H]1O[C@@H]2[C@@H](Oc3ccc4cc(Br)c(N)nc4c3)CC[C@]2(O)[C@H]1O , EC50 read as 4.7

[A] Cc1nc(N)c2ccn([C@@H]3O[C@@H]4[C@H](Cc5ccc6cc(Br)c(N)nc6c5)CC[C@]4(O)[C@H]3O)c2n1
[B] Cc1ncnc2c1ccn2[C@@H]1O[C@@H]2[C@H](Cc3ccc4ccc(N)nc4c3)CC[C@]2(O)[C@H]1O
**Q:** For the pair A and B , which entry has the numerically smaller recorded EC50? Write down the label of the entry you select.
**A:** A

###

- protocol_notes: MRT in rat
- Format: ADME
- measurement_setup: in vivo
parameter_measured: MRT (h)

[a] Nc1nc2cc(O[C@H]3CC[C@@]4(O)[C@@H]3O[C@@H](n3ccc5c(N)ncnc53)[C@@H]4O)ccc2cc1Cl
[b] Cc1cc2ccc(C[C@@H]3CC[C@@]4(O)[C@@H]3O[C@@H](n3ccc5c(N)ncnc53)[C@@H]4O)cc2nc1N
[c] Cc1nc(N)c2ccn([C@@H]3C[C@@H]4[C@H](Cc5ccc6cc(F)c(N)nc6c5)CC[C@]4(O)[C@H]3O)c2n1
[d] Nc1nc2cc(C[C@@H]3CC[C@@]4(O)[C@@H]3O[C@@H](n3ccc5c(N)ncnc53)[C@@H]4O)cc(F)c2cc1F
**Q:** With the 4 molecules above, produce a list ordered by ascending MRT. Reply format: the labels, ordered as requested.
**A:** b, a, d, c

[P] Cc1cn([C@@H]2C[C@@H]3[C@H](Cc4ccc5cc(F)c(N)nc5c4)CC[C@]3(O)[C@H]2O)c2ncnc(N)c12
[Q] Nc1nc2cc(C[C@@H]3CC[C@@]4(O)[C@@H]3C[C@@H](n3ccc5c(N)ncnc53)[C@@H]4O)ccc2cc1Br
[R] Nc1nc2cc(O[C@H]3CC[C@@]4(O)[C@@H]3O[C@@H](n3ccc5c(N)ncnc53)[C@@H]4O)ccc2cc1F
[S] Nc1nc2cc(C[C@@H]3CC[C@@]4(O)[C@@H]3C[C@@H](n3cc(F)c5c(N)ncnc53)[C@@H]4O)cc(F)c2cc1F
**Q:** // sort entries: MRT, high to low Reply format: the labels, ordered as requested.
**A:** S, Q, P, R

###

- protocol_notes: Solubility of the compound in FaSSIF at pH 7 at 200 uM incubated for 24 hrs by UV-vis detection based HPLC analysis
- Format: physicochemical
parameter_measured: solubility at 24 h, 200 µM (µM)

[A] Cc1ncnc2c1ccn2[C@@H]1O[C@@H]2[C@H](Cc3ccc4cc(Cl)c(N)nc4c3)CC[C@]2(O)[C@H]1O
[B] CNc1ncnc2c1ccn2[C@@H]1O[C@@H]2[C@@H](Oc3ccc4cc(Br)c(N)nc4c3)CC[C@]2(O)[C@H]1O
**Q:** API: POST /compare with A and B ; response names the item with higher solubility at 24 h, 200 µM. Write down the label of the entry you select.
**A:** A
(A: 29 µM, B: 14 µM)

###

- protocol_notes: Oral bioavailability in rat
- Type: ADME, organism-based
- measurement_setup: in vivo
parameter_measured: bioavailability (%)

Examples from the recorded data:
Notebook: Cc1ncnc2c1ccn2[C@@H]1O[C@@H]2[C@@H](Oc3ccc4cc(Cl)c(N)nc4c3)CC[C@]2(O)[C@H]1O , bioavailability read as 71

Notebook: Nc1nc2cc(C[C@@H]3CC[C@@]4(O)[C@@H]3C[C@@H](n3cc(F)c5c(N)ncnc53)[C@@H]4O)ccc2cc1F , bioavailability read as 19

Notebook: Nc1nc2cc(C[C@@H]3CC[C@@]4(O)[C@@H]3C[C@@H](n3cc(F)c5c(N)ncnc53)[C@@H]4O)cc(F)c2cc1F , bioavailability read as 24

[A] Cc1cn([C@@H]2C[C@@H]3[C@H](Cc4ccc5cc(F)c(N)nc5c4)CC[C@]3(O)[C@H]2O)c2ncnc(N)c12
[B] Cc1ncnc2c1ccn2[C@@H]1C[C@@H]2[C@H](Cc3ccc4cc(Br)c(N)nc4c3)CC[C@]2(O)[C@H]1O
[C] Nc1nc2cc(C[C@@H]3CC[C@@]4(O)[C@@H]3O[C@@H](n3cc(F)c5c(N)ncnc53)[C@@H]4O)ccc2cc1F
**Q:** Ascending by bioavailability, please. Reply format: the labels, ordered as requested.
**A:** A, C, B
(A: 10%, C: 24%, B: 74%)

[A] Nc1nc2cc(C[C@@H]3CC[C@@]4(O)[C@@H]3O[C@@H](n3ccc5c(N)ncnc53)[C@@H]4O)ccc2cc1Cl
[B] Cc1ncnc2c1ccn2[C@@H]1C[C@@H]2[C@H](Cc3ccc4cc(Cl)c(N)nc4c3)CC[C@]2(O)[C@H]1O
**Q:** API: POST /compare with A and B ; response names the item with higher bioavailability. Write down the label of the entry you select.
**A:** B
(B: 64%, A: 8%)

###

- tested_on: Protein arginine N-methyltransferase 5 (Homo sapiens, UniProt O14744)
- Sequence (O14744 whole entry): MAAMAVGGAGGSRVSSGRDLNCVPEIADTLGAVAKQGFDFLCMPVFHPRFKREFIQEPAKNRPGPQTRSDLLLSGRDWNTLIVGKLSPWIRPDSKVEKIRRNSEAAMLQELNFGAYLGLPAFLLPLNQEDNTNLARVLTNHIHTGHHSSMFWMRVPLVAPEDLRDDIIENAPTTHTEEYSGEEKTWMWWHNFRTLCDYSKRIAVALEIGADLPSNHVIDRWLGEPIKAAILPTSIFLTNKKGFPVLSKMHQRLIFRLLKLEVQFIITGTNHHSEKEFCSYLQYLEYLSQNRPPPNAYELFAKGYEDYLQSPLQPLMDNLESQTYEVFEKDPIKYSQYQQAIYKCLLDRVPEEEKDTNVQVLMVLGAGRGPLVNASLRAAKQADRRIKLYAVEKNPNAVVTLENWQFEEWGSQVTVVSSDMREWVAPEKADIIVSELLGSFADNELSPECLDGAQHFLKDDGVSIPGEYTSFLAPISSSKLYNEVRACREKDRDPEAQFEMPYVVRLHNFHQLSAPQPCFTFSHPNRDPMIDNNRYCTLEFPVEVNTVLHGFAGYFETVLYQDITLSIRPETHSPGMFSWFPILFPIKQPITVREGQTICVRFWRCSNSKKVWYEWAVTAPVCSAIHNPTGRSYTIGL
- protocol_notes: Inhibition of PRMT5 (unknown origin) assessed as inhibition of symmetric dimethylation of arginine incubated for 3 days by fluorescence based cellular target engagement assay
pEC50: −log10 of the molar value.
parameter_measured: pEC50

Examples from the recorded data:
Entry Nc1nc2cc(C[C@@H]3CC[C@@]4(O)[C@@H]3C[C@@H](n3ccc5c(N)ncnc53)[C@@H]4O)ccc2cc1Br ; assay system Protein arginine N-methyltransferase 5 (Homo sapiens, UniProt O14744); pEC50 recorded at 8.54

Entry Cc1ncnc2c1ccn2[C@@H]1C[C@@H]2[C@H](Cc3ccc4cc(F)c(N)nc4c3)CC[C@]2(O)[C@H]1O ; assay system Protein arginine N-methyltransferase 5 (Homo sapiens, UniProt O14744); pEC50 recorded at 9.05

[I] CNc1ncnc2c1ccn2[C@@H]1O[C@@H]2[C@H](Cc3ccc4cc(Br)c(N)nc4c3)CC[C@]2(O)[C@H]1O
[II] Nc1nc2cc(C[C@@H]3CC[C@@]4(O)[C@@H]3C[C@@H](n3cc(F)c5c(N)ncnc53)[C@@H]4O)ccc2cc1F
[III] Cc1ncnc2c1ccn2[C@@H]1O[C@@H]2[C@H](Cc3ccc4cc(Cl)c(N)nc4c3)CC[C@]2(O)[C@H]1O
**Q:** // sort entries: pEC50, high to low Reply format: the labels, ordered as requested.
**A:** II, III, I
